- study-system: PI 3-kinase delta (Homo sapiens, UniProt O00329)
- Sequence (O00329 whole entry): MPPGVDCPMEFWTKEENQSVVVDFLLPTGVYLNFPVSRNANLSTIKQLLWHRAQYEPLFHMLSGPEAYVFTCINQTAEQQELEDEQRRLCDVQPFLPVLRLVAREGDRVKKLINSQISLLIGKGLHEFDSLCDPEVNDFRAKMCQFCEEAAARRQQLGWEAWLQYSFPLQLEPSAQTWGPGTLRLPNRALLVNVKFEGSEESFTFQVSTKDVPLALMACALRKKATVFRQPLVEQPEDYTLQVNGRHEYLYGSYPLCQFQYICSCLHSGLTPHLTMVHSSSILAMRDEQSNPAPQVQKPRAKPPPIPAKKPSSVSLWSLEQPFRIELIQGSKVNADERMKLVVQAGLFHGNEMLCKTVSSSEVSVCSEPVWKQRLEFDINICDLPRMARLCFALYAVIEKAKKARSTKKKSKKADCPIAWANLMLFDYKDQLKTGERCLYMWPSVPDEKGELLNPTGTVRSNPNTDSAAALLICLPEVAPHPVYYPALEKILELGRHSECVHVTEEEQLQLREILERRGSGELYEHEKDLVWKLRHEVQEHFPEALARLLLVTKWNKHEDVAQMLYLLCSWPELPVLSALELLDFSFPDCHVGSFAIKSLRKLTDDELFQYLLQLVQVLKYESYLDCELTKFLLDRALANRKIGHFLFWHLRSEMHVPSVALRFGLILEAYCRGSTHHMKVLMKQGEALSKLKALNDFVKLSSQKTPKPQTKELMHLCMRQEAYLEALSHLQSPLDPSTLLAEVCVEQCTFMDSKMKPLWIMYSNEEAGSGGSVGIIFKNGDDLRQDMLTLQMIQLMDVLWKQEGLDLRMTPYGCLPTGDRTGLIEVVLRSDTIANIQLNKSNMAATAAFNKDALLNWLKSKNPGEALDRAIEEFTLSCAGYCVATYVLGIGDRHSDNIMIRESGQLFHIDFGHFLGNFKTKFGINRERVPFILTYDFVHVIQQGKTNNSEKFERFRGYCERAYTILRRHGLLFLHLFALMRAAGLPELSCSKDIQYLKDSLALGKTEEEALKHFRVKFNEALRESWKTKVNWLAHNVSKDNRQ
- Sequence (P27986 461-568 partner): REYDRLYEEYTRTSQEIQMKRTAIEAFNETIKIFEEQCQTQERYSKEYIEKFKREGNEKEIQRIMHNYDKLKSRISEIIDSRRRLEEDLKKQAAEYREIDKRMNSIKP
- measurement-protocol: TR-FRET Adapta assay, assay F
- measurement-setup: read-out: Assay F PI3Kδ IC50
Each entry below carries its recorded IC50.

See these solved cases before continuing.
Cc1ccc(S(=O)(=O)N[C@H]2C[C@H](O)C2)cc1-c1cnc(N)c(-n2cncn2)n1 [Example 71a]
1000 nM
Cc1ccc(S(=O)(=O)NCC2(CO)CCOCC2)cc1-c1cnc(N)c(-n2cncn2)n1 [Example 127.50]
2100 nM
Cc1cn(-c2nc(-c3cc(S(=O)(=O)NCCCO)ccc3C)cnc2N)cn1 [Example 57]
580 nM
Cc1cc(-c2nc(-c3cc(S(=O)(=O)N[C@H]4CC[C@H](O)CC4)ccc3C)cnc2N)on1 [Example 4]
300 nM

API: the following record is the query input.
Exercise: Item CCN(CC)CCCNS(=O)(=O)c1ccc(C)c(-c2cnc(N)c(-c3ccnc(C)c3)n2)c1 [Example 129.23] has what recorded IC50?
Key: 1900 nM

---

- study-system: mTOR (Homo sapiens, UniProt P42345)
- measurement-protocol: Lanthascreen kinase binding assay, assay G
- measurement-setup: read-out: Assay G mTOR IC50
pIC50: −log10 of the molar value.
Each entry below carries its recorded pIC50.

See these solved cases before continuing.
Cc1ccc(S(=O)(=O)NC[C@@H]2CCC(C)(C)O2)cc1-c1cnc(N)c(-n2cncn2)n1 [Example 127.40]
< 5.00
Cc1noc(-c2nc(-c3cc(S(=O)(=O)N[C@H]4CC[C@H](O)CC4)ccc3C)cnc2N)n1
< 5.04

API: the following record is the query input.
Exercise: Item Cc1ccc(S(=O)(=O)NC2CCOC2=O)cc1-c1cnc(N)c(-n2cncn2)n1 (stereo not drawn) has what recorded pIC50?
Key: < 5.00

---

- study-system: PI 4-kinase beta (Homo sapiens, UniProt Q9UBF8)
- measurement-protocol: Kinase Glo Luminescent Kinase Assay (Kglo), assay D
- Assay type: biochemical
- measurement-setup: read-out: Assay D PI4Kβ IC50
pIC50: −log10 of the molar value.
assay-metric: pIC50

See these solved cases before continuing.
Cc1ccc(S(=O)(=O)NCCC(C)(C)O)cc1-c1cnc(N)c(-c2ccnn2C)n1
< 5.04
COc1ccncc1-c1nc(-c2cc(S(=O)(=O)NCCC(C)(C)O)ccc2C)cnc1N
< 5.04

API: the following record is the query input.
Exercise: Short answer please: pIC50, PI 4-kinase beta (Homo sapiens, UniProt Q9UBF8), entry Cc1ccc(S(=O)(=O)NCCCCCO)cc1-c1cnc(N)c(-n2cncn2)n1
Key: < 5.00

---

- study-system: PI 3-kinase alpha (Homo sapiens, UniProt P42336)
- Sequence (P42336 whole entry): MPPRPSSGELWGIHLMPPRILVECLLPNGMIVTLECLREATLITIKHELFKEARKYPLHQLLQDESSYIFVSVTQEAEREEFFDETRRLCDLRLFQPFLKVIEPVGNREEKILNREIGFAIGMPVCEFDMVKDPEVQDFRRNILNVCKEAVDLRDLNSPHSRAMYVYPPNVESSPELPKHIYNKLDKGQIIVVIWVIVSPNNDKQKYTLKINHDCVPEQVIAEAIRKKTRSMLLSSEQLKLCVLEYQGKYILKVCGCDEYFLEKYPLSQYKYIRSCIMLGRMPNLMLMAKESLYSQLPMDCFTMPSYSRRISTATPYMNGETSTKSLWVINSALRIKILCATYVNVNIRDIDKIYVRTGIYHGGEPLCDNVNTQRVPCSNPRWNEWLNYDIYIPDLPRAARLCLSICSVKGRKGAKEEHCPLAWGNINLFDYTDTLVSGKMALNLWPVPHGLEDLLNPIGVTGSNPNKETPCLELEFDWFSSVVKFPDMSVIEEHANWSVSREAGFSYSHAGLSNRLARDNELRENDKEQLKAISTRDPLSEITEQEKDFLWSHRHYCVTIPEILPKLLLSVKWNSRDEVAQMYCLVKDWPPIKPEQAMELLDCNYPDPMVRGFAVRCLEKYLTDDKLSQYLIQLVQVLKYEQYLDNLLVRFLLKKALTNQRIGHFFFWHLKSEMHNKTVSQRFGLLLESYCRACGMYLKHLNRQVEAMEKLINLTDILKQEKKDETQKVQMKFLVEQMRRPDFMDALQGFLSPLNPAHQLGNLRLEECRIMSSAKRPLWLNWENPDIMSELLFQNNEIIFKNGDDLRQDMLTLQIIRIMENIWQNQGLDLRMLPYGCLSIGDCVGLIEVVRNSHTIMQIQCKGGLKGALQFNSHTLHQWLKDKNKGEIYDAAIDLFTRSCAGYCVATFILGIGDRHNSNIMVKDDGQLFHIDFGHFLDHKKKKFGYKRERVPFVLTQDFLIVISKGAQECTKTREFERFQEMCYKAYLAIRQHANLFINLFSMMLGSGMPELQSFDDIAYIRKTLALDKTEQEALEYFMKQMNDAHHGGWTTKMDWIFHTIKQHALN
- measurement-protocol: Kinase Glo Luminescent Kinase Assay (Kglo), assay A
- Type: biochemical
- measurement-setup: read-out: Assay A PI3Kα IC50
assay-metric: pIC50
Just the number, please; pIC50 means minus log10 of the concentration in mol/L.

Cc1ccc(S(=O)(=O)NCC2(C)CCCO2)cc1-c1cnc(N)c(-c2cn(C)nc2C)n1 (stereo not drawn) [Example 128.4]
7.00
Cc1ccc(S(=O)(=O)NCCC(C)(C)O)cc1-c1cnc(N)c(-c2ccc(N3CCOCC3)nc2)n1 [Example 119.21]
5.76

Exercise: Item Cc1ccc(S(=O)(=O)NCCC(C)(C)O)cc1-c1cnc(N)c(-c2cn[nH]c2)n1 [Example 119.33] has what recorded pIC50?
Key: 6.80

---

Each entry below carries its recorded pIC50.
- study-system: PI 3-kinase beta (Homo sapiens)
- Sequence (P42338 whole entry): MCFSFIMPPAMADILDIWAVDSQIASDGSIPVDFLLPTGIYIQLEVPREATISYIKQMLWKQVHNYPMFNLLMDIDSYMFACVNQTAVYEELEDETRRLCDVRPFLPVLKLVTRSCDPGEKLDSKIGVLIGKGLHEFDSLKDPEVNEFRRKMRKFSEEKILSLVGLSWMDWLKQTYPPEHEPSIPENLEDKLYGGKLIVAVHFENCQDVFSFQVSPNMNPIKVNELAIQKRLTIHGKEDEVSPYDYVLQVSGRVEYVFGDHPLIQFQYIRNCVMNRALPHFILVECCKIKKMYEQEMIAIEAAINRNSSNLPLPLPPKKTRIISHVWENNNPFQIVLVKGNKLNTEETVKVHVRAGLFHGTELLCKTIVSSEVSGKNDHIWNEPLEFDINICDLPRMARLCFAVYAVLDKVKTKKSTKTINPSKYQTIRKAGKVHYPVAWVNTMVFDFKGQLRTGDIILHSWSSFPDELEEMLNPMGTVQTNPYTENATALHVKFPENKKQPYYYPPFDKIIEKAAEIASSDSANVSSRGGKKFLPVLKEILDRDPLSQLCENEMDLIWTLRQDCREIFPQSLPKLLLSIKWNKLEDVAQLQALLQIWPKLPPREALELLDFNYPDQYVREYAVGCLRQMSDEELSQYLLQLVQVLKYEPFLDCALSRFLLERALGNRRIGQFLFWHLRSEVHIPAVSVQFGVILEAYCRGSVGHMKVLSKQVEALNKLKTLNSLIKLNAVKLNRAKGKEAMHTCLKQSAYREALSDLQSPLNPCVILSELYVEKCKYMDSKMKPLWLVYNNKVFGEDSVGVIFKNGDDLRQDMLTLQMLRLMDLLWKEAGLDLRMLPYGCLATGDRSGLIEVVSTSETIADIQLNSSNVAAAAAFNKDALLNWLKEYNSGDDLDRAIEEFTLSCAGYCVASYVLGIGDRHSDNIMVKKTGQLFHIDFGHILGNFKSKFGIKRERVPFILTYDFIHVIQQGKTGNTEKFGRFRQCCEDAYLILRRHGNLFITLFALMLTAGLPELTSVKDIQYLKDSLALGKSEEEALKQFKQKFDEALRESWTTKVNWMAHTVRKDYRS
- Sequence (P27986 461-568 partner): as the sequence (P27986 461-568 partner) above
- measurement-protocol: Kinase Glo Luminescent Kinase Assay (Kglo), assay B
- Format: biochemical
- measurement-setup: read-out: Assay B PI3Kβ IC50
Just the number, please; pIC50 means minus log10 of the concentration in mol/L.

See these solved cases before continuing.
Cc1ccc(S(=O)(=O)NC[C@H]2CCOC2)cc1-c1cnc(N)c(-n2cncn2)n1 [Example 127.27]
5.74
Cc1ccc(S(=O)(=O)NCC(C)(C)O)cc1-c1cnc(N)c(-c2cnn(CC(F)(F)F)n2)n1 [Example 84]
5.64
Cc1cc(-c2nc(-c3cc(S(=O)(=O)N[C@H]4CC[C@@H](O)CC4)ccc3C)cnc2N)ccn1 [Example 76]
5.43
Cc1ncc(-c2nc(-c3cc(S(=O)(=O)NCC4COC4)ccc3C)cnc2N)s1 [Example 45.1]
6.70
Cc1ccc(S(=O)(=O)NCCC(C)(C)O)cc1-c1cnc(N)c(-c2cnn(C)c2)n1 [Example 119.16]
5.42

Exercise: Item Cc1ncc(-c2nc(-c3cc(S(=O)(=O)NCC4CCOCC4)ccc3C)cnc2N)s1 [Example 45.2] has what recorded pIC50?
Key: 6.43

---

- study-system: PI 4-kinase beta (Homo sapiens, UniProt Q9UBF8)
- measurement-protocol: Kinase Glo Luminescent Kinase Assay (Kglo), assay D
- Type: biochemical
- measurement-setup: read-out: Assay D PI4Kβ IC50
assay-metric: pIC50
Just the number, please; pIC50 means minus log10 of the concentration in mol/L.

Cc1cc(C)c(S(=O)(=O)NCC(C)(C)O)cc1-c1cnc(N)c(-n2cncn2)n1
6.29
Cc1ccc(S(=O)(=O)N2CC(CO)C2)cc1-c1cnc(N)c(-n2cncn2)n1
5.47

API: the following record is the query input.
Exercise: Item Cc1ccc(S(=O)(=O)NCC2COCCN2C)cc1-c1cnc(N)c(-c2cn(C)nc2C)n1 (single isomer, unassigned) [Example 128.3b] has what recorded pIC50?
Key: 5.34

---

- study-system: PI 4-kinase beta (Homo sapiens, UniProt Q9UBF8)
- measurement-protocol: Kinase Glo Luminescent Kinase Assay (Kglo), assay D
- Type: biochemical
- measurement-setup: read-out: Assay D PI4Kβ IC50
Each entry below carries its recorded IC50.

See these solved cases before continuing.
Cc1ccc(S(=O)(=O)NCCC(C)(C)O)cc1-c1cnc(N)c(-c2nc(C3CC3)no2)n1
> 9.1 µM
Cc1cc(-c2nc(-c3cc(S(=O)(=O)N[C@H]4CCC[C@@H]4N)ccc3C)cnc2N)ccn1
> 9.1 µM
Cc1cc(-c2nc(-c3cc(S(=O)(=O)NCCN4CCCC4)ccc3C)cnc2N)ccn1
> 9.1 µM
COC(C)(C)CNS(=O)(=O)c1ccc(C)c(-c2cnc(N)c(-c3ccnc(C)c3)n2)c1
> 9.1 µM
Cc1nc(-c2nc(-c3cc(S(=O)(=O)NCC(C)(C)O)ccc3C)cnc2N)c(C)s1
> 10 µM
Cc1nnc(-c2nc(-c3cc(S(=O)(=O)NCC(C)(C)O)ccc3C)cnc2N)o1
> 10 µM
Cc1ncn(-c2nc(-c3cc(S(=O)(=O)NCCC(C)(C)O)ccc3C)cnc2N)n1
> 9.1 µM
Cc1cc(-c2nc(-c3cc(S(=O)(=O)NC[C@H]4CCCO4)ccc3C)cnc2N)ccn1
> 9.1 µM
CCc1noc(-c2nc(-c3cc(S(=O)(=O)NC4CNC4)ccc3C)cnc2N)n1
> 9.1 µM
CCn1ncc(-c2nc(-c3cc(S(=O)(=O)NCC(C)(C)O)ccc3C)cnc2N)n1
> 10 µM

Exercise: Item Cc1ccc(S(=O)(=O)NCC2(CO)CC2)cc1-c1cnc(N)c(-n2cncn2)n1 has what recorded IC50?
Key: 6.7 µM

---

- study-system: PI 3-kinase gamma (Homo sapiens, UniProt P48736)
- Sequence (P48736 whole entry): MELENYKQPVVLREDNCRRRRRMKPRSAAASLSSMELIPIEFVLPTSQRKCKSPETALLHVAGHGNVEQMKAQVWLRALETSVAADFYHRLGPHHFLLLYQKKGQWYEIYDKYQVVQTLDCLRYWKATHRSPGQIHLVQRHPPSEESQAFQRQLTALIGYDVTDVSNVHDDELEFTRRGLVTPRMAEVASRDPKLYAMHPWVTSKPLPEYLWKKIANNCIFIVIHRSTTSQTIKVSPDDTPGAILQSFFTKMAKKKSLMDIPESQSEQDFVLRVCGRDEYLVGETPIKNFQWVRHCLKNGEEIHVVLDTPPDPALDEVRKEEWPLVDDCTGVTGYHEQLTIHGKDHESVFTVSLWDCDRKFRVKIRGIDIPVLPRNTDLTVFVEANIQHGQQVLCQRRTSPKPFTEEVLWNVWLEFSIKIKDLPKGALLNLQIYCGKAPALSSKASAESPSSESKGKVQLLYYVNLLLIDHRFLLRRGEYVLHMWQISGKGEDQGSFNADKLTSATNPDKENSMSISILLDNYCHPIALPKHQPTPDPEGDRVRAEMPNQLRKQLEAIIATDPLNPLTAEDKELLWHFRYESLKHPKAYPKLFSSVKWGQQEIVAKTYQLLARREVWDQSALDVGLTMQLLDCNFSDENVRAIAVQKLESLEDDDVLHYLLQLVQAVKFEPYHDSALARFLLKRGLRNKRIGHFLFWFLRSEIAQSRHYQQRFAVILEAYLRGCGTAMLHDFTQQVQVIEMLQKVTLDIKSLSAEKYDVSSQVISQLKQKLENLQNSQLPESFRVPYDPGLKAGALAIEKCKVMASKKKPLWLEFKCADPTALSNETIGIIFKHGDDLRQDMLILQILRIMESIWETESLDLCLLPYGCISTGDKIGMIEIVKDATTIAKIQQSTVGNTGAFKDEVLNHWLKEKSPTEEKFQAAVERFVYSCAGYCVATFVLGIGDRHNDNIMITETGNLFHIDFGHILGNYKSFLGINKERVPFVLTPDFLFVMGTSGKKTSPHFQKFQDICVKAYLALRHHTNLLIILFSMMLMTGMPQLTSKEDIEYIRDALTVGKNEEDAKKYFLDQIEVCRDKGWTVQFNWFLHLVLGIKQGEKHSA
- measurement-protocol: Cellular U937 AKT assay K1 (MSD)
- Format: cell-based
- measurement-setup: U937 cells, K1 format; read-out: Assay K1 PI3Kγ IC50
Each entry below carries its recorded log10 IC50.
Note: values are log10 of IC50 expressed in nM.

Cc1ccc(S(=O)(=O)NCC(C)(C)O)cc1-c1cnc(N)c(-c2cnc(C3CC3)s2)n1 [Example 21]
1.26
Cc1ccc(S(=O)(=O)N[C@H]2CC[C@H](O)CC2)cc1-c1cnc(N)c(-c2ccnc(F)c2)n1 [Example 60]
1.97
Cc1cc(-c2nc(-c3cc(S(=O)(=O)NCC4CCCO4)ccc3C)cnc2N)ccn1 (stereo not drawn) [Example 129.17]
2.55

Exercise: Item Cc1ccc(S(=O)(=O)NCC2(C)COC2)cc1-c1cnc(N)c(-n2cncn2)n1 [Example 29] has what recorded log10 IC50?
Key: 2.31

Exercise: Item Cc1ccc(S(=O)(=O)N[C@H]2CC[C@H](O)CC2)cc1-c1cnc(N)c(-c2ccncc2)n1 [Example 11] has what recorded log10 IC50?
Key: 1.76

Exercise: Item Cc1ncc(-c2nc(-c3cc(S(=O)(=O)NCC4(CO)COC4)ccc3C)cnc2N)s1 [Example 44] has what recorded log10 IC50?
Key: 1.34

Exercise: Item Cc1ccc(S(=O)(=O)NCCF)cc1-c1cnc(N)c(-n2cncn2)n1 [Example 127.28] has what recorded log10 IC50?
Key: 2.46

Exercise: Item Cc1cc(-c2nc(-c3cc(S(=O)(=O)NCCC(C)(O)C(F)(F)F)ccc3C)cnc2N)ccn1 (stereo not drawn) [Example 129.13] has what recorded log10 IC50?
Key: 2.16

Exercise: Item COc1cc(-c2nc(-c3cc(S(=O)(=O)NCCC(C)(C)O)ccc3C)cnc2N)ccn1 [Example 119.3] has what recorded log10 IC50?
Key: 3.56

Exercise: Item Cc1noc(-c2nc(-c3cc(S(=O)(=O)NCCC(C)(C)O)ccc3C)cnc2N)n1 [Example 3] has what recorded log10 IC50?
Key: 2.60

Exercise: Item Cc1cnn(-c2nc(-c3cc(S(=O)(=O)N[C@H]4CC[C@H](O)CC4)ccc3C)cnc2N)c1 [Example 111] has what recorded log10 IC50?
Key: 1.30

Exercise: Item Cc1ccc(S(=O)(=O)N[C@H]2CC[C@H](O)CC2)cc1-c1cnc(N)c(-c2nc(C(C)C)no2)n1 [Example 23] has what recorded log10 IC50?
Key: 2.03

Exercise: Item Cc1ccc(S(=O)(=O)NCCC(C)(C)O)cc1-c1cnc(N)c(-c2cn[nH]c2)n1 [Example 119.33] has what recorded log10 IC50?
Key: 2.86

Exercise: Item Cc1ccc(S(=O)(=O)NCCC(C)(C)O)cc1-c1cnc(N)c(-c2cnn(Cc3ccncc3)c2)n1 [Example 119.39] has what recorded log10 IC50?
Key: 1.53

Exercise: Item Cc1ccc(S(=O)(=O)NOC(C)(C)C)cc1-c1cnc(N)c(-n2cncn2)n1 [Example 112.1] has what recorded log10 IC50?
Key: 1.96
